# targetSystem: T1, GST-MUPP1 PDZ domain 10 (Homo sapiens (Human)), O75970
# T1 chain: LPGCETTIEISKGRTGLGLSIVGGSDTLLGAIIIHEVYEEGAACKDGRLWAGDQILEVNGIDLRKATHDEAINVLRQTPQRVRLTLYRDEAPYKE
# testSummary: G' assay; further: key of the grades not given here
// reported Classification per item
Value expressed in A450 class; do not type the unit.

>  <binder>
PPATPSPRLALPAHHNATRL (modifications not checked) [Na+/Pi cotransporter 2]

>  <measuredProperty>
Classification

>  <resultNumber>
1

$$$$

Fill in: Classification of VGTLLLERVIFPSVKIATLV (modifications not checked) [AdenoE4 typ9] is ___
1

Fill in: Classification of ENLELPVNPSSVVSERISSV (modifications not checked) [serotonin receptor 5-HT-2C] is ___
1

Fill in: Classification of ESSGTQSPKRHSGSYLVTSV (modifications not checked) [APC-adenomatous polyposis coli protein] is ___
1
